Task for the reader: assign each of the following compounds its reported melting point.

1. COc1cccc(-c2cc3c(F)cc(N4CCNCC4)cc3oc2=O)n1 ... 231 to 236 °C
2. CN1CCN(c2ccc3cc(-c4nc(C(F)(F)F)cs4)c(=O)oc3c2)CC1.O=C(O)C(F)(F)F ... 260 to 270 °C
3. Cc1ccc2oc(-c3cc4ccc(N5C[C@@H](C)N[C@@H](C)C5)cc4oc3=O)cc2n1 ... 179 to 183 °C
4. Cc1ccc2nc(-c3cc4ccc(N5CCN[C@H](C)C5)cc4oc3=O)cn2c1 ... 185 to 188 °C
5. Cc1ccc2nc(-c3cc4ccc(N5CCCNCC5)cc4oc3=O)cn2n1 ... 252 to 255 °C

Return reported melting point values for all items listed beneath this line.
1. CC(C)NCc1ccc2cc(-c3nc4c(C(F)(F)F)cccc4s3)c(=O)oc2c1
2. Cc1cn2cc(-c3cc4ccc(N5C[C@@H](O)[C@H](N6CCCC6)C5)cc4oc3=O)cc2c(C)n1
3. Cc1cnc2nc(-c3cc4ccc(N5CCCNCC5)cc4oc3=O)cn2c1
4. Cc1ccn2cc(-c3cc4ccc(NC5CCNCC5)cc4oc3=O)nc2c1
5. O=c1oc2cc(N3CCNCC3)ccc2cc1-c1ccsc1
6. Cc1cc(F)c2nc(-c3cc4ccc(N5CCNC6(CCCC6)C5)cc4oc3=O)cn2c1
7. Cc1ccc2nc(-c3cc4ccc(N(C)C5CCN(C)CC5)cc4oc3=O)cn2c1

1. 191 to 196 °C
2. 264 to 268 °C
3. 275 to 278 °C
4. 232 to 239 °C
5. 175 to 177 °C
6. 236 to 242 °C
7. 181 to 184 °C

Return reported melting point values for all items listed beneath this line.
1. CN1CCCN(c2cc(F)c3cc(-c4cn5cccnc5n4)c(=O)oc3c2)CC1
2. Cc1cn2cc(-c3cc4ccc(N5CC[C@H]6CN(C)C[C@H]65)cc4oc3=O)nc2c(C)n1

1. 300 to 302 °C
2. 241 to 248 °C

Source of measurements: patent USRE47689E1
